Each recorded value in this set is attributed to the supplement of paper PMC6555819.

Can you tell me PBM binding z-score for the items I'm about to list?
Tested on: PPARg:RXRa 270nM:90nM, anti-RXR (NR concentration 270 nM, RXRa partner concentration 90 nM)
assay overview: PBM binding z-score (relative to random genomic background probes); higher = stronger binding; sequences stand for … in GC…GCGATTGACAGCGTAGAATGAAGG

IN: Return reported PBM binding z-score. Input sequence: AGAACGAGAGCACGCTGAGTTGATAGCAGAGTAG
OUT: -0.601

IN: Return reported PBM binding z-score. Input sequence: TCAGACAGGTGAGGGTAACTCAGGTACGCAGTCG
OUT: 1.46

IN: Return reported PBM binding z-score. Input sequence: AGAATAAGGTTAAGATCAGGGAAACAGAATACAT
OUT: 1.62

IN: Return reported PBM binding z-score. Input sequence: CGTCAAATTTCAACTAAGGTAACGTAAAGCACGC
OUT: 0.149

IN: Return reported PBM binding z-score. Input sequence: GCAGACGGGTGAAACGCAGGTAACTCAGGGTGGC
OUT: -0.502

IN: Return reported PBM binding z-score. Input sequence: GCATATAGGTAATACAAGGCGAAAGTCCGATTGT
OUT: 0.503
